Test: Metabolic stability in mice plasma extract at 37 °C
Assay type: in vitro ADME
Details: mouse
Procedure: To determine the plasma stability and brain stability of these prodrugs, we assayed the pharmacokinetics of the prepared compounds 7a–7f in mice plasma extract and brain homogenate at 37 °C. The pseudo-first order rate constants of disappearance (Ke) of the prodrugs and their half lives (t1/2) which were calculated by linear regression of Ln of peak area against time in minutes are listed in Table 1. […]
Items are presented alongside their recorded half-life at 1.67 µg/mL.
Express your answer in min, writing the number without its unit.

Here's what some known entries look like.
- compound: "CCCSS/C(CCOC(=O)CCCC(=O)O[C@H]1CC[C@H](N(C)C(=O)c2ccc3nonc3c2)CC1)=C(/C)N(C)C=O [Compound 7b]"
  half-life at 1.67 µg/mL, min: 9.82
- compound: "C/C(=C(\\CCOC(=O)CCCC(=O)O[C@H]1CC[C@H](N(C)C(=O)c2ccc3nonc3c2)CC1)SSCc1ccccc1)N(C)C=O [Compound 7f]"
  half-life at 1.67 µg/mL, min: 15.5
- compound: "C/C(=C(\\CCOC(=O)CCCC(=O)O[C@H]1CC[C@H](N(C)C(=O)c2ccc3nonc3c2)CC1)SSCCC(C)C)N(C)C=O [Compound 7e]"
  half-life at 1.67 µg/mL, min: 16
- compound: "CCCCCSS/C(CCOC(=O)CCCC(=O)O[C@H]1CC[C@H](N(C)C(=O)c2ccc3nonc3c2)CC1)=C(/C)N(C)C=O [Compound 7d]"
  half-life at 1.67 µg/mL, min: 15.4
- compound: "CCCCSS/C(CCOC(=O)CCCC(=O)O[C@H]1CC[C@H](N(C)C(=O)c2ccc3nonc3c2)CC1)=C(/C)N(C)C=O [Compound 7c]"
  half-life at 1.67 µg/mL, min: 10.2

Note: attention shifts to another entry.
Query: May I ask what half-life at 1.67 µg/mL has been recorded for CCSS/C(CCOC(=O)CCCC(=O)O[C@H]1CC[C@H](N(C)C(=O)c2ccc3nonc3c2)CC1)=C(/C)N(C)C=O [Compound 7a] ?
Reply: 2.23

====

Experiment: Metabolic stability in mice brain homogenate at 37 °C
Format: in vitro ADME
Description: To determine the plasma stability and brain stability of these prodrugs, we assayed the pharmacokinetics of the prepared compounds 7a–7f in mice plasma extract and brain homogenate at 37 °C. The pseudo-first order rate constants of disappearance (Ke) of the prodrugs and their half lives (t1/2) which were calculated by linear regression of Ln of peak area against time in minutes are listed in Table 1. […]
// reported Ke, pseudo-first order rate constant of disappearance per item

- moleculeSmiles: "CCCCSS/C(CCOC(=O)CCCC(=O)O[C@H]1CC[C@H](N(C)C(=O)c2ccc3nonc3c2)CC1)=C(/C)N(C)C=O"
  value: "4.05 min^−1 (×10^−2)"

Query: Tell me the measured Ke, pseudo-first order rate constant of disappearance of CCCSS/C(CCOC(=O)CCCC(=O)O[C@H]1CC[C@H](N(C)C(=O)c2ccc3nonc3c2)CC1)=C(/C)N(C)C=O , please.
Reply: 6.82 min^−1 (×10^−2)

Query: Using the record for C/C(=C(\CCOC(=O)CCCC(=O)O[C@H]1CC[C@H](N(C)C(=O)c2ccc3nonc3c2)CC1)SSCCC(C)C)N(C)C=O , report its Ke, pseudo-first order rate constant of disappearance.
Reply: 3.69 min^−1 (×10^−2)

Query: Item under review: CCCCCSS/C(CCOC(=O)CCCC(=O)O[C@H]1CC[C@H](N(C)C(=O)c2ccc3nonc3c2)CC1)=C(/C)N(C)C=O . Reported Ke, pseudo-first order rate constant of disappearance?
Reply: 6.34 min^−1 (×10^−2)

Query: Dear colleague, I am looking for the recorded Ke, pseudo-first order rate constant of disappearance of the following compound: C/C(=C(\CCOC(=O)CCCC(=O)O[C@H]1CC[C@H](N(C)C(=O)c2ccc3nonc3c2)CC1)SSCc1ccccc1)N(C)C=O
Reply: 5.78 min^−1 (×10^−2)

Query: Value lookup for Ke, pseudo-first order rate constant of disappearance; key = CCSS/C(CCOC(=O)CCCC(=O)O[C@H]1CC[C@H](N(C)C(=O)c2ccc3nonc3c2)CC1)=C(/C)N(C)C=O
Reply: 19.9 min^−1 (×10^−2)

====

readout: melting point

Some solved cases for reference:
- moleculeSmiles: "CCSS/C(CCOC(=O)CCCC(=O)O[C@H]1CC[C@H](N(C)C(=O)c2ccc3nonc3c2)CC1)=C(/C)N(C)C=O"
  melting point: "78.8 to 79.5 °C"
- moleculeSmiles: "C/C(=C(\\CCOC(=O)CCCC(=O)O[C@H]1CC[C@H](N(C)C(=O)c2ccc3nonc3c2)CC1)SSCc1ccccc1)N(C)C=O"
  melting point: "72.9 to 73.8 °C"
- moleculeSmiles: "CCCCCSS/C(CCOC(=O)CCCC(=O)O[C@H]1CC[C@H](N(C)C(=O)c2ccc3nonc3c2)CC1)=C(/C)N(C)C=O"
  melting point: "69.3 to 70.3 °C"

Query: Give its melting point value. Item: CCCSS/C(CCOC(=O)CCCC(=O)O[C@H]1CC[C@H](N(C)C(=O)c2ccc3nonc3c2)CC1)=C(/C)N(C)C=O
Reply: 78 to 79.3 °C

Query: Need melting point of CCCCSS/C(CCOC(=O)CCCC(=O)O[C@H]1CC[C@H](N(C)C(=O)c2ccc3nonc3c2)CC1)=C(/C)N(C)C=O , thanks.
Reply: 67.6 to 68.4 °C

====

test: Metabolic stability in mice brain homogenate at 37 °C; format: in vitro ADME; conditions: mouse, mouse brain homogenate
Could you please mark Criterion met for values of half-life at 1.67 µg/mL below 10 min and Criterion not met for values at or above it?

Recorded results for 4 molecules are shown here.
- moleculeSmiles: "CCCCCSS/C(CCOC(=O)CCCC(=O)O[C@H]1CC[C@H](N(C)C(=O)c2ccc3nonc3c2)CC1)=C(/C)N(C)C=O"
  category: "Criterion not met"
- moleculeSmiles: "CCCCSS/C(CCOC(=O)CCCC(=O)O[C@H]1CC[C@H](N(C)C(=O)c2ccc3nonc3c2)CC1)=C(/C)N(C)C=O"
  category: "Criterion not met"
- moleculeSmiles: "C/C(=C(\\CCOC(=O)CCCC(=O)O[C@H]1CC[C@H](N(C)C(=O)c2ccc3nonc3c2)CC1)SSCCC(C)C)N(C)C=O"
  category: "Criterion not met"
- moleculeSmiles: "CCSS/C(CCOC(=O)CCCC(=O)O[C@H]1CC[C@H](N(C)C(=O)c2ccc3nonc3c2)CC1)=C(/C)N(C)C=O"
  category: "Criterion met"

Now examine the next entry.
Query: Does the reported half-life at 1.67 µg/mL of C/C(=C(\CCOC(=O)CCCC(=O)O[C@H]1CC[C@H](N(C)C(=O)c2ccc3nonc3c2)CC1)SSCc1ccccc1)N(C)C=O stay below 10 min?
Reply: Criterion not met
